test: Cycloheximide Counterscreen for Small Molecule Inhibitors of Shiga Toxin; details: cell reporter, cycloheximide protein synthesis inhibition counterscreen; active compounds read high; further: read at 38.3 µM for the half of the compounds with a filed dose; 0% is about no effect
About 37,000 (12%) of roughly 300,000 compounds were called active. The sample holds actives, similar compounds and a random draw of the others, so the mix is not that of the screen.
observed.property: max response (%)

{"molecule": "Cc1cc(C)cc(OCC(=O)Nc2cc(NC(=O)COc3cc(C)cc(C)c3)cc(C(=O)O)c2)c1", "endpoint.result": -5.04}
{"molecule": "CCSc1nc2sc3c(c2c(=O)[nH]1)CC(C)(C)OC3", "endpoint.result": 0.89}
{"molecule": "COC(=O)c1cc(CNC(=O)CC(C)c2ccccc2)ccc1OC (stereo unspecified)", "endpoint.result": 0.629}
{"molecule": "O=C(CSc1ncnc2c1cnn2CCc1ccccc1)Nc1ccc(F)cc1", "endpoint.result": 2.37}
{"molecule": "c1ccc(-n2ncc3c(N4CCCC4)ncnc32)cc1", "endpoint.result": 8.89}
{"molecule": "Cc1cc(C(=O)OCC(=O)N2c3ccccc3NC(=O)C2(C)C)c(C)n1-c1ccccc1", "endpoint.result": -2.79}
